target: T1, human SIRP-α v2 D1 domain (human); test: SPR, Langmuir fit
T1 construct: also called human v2
T1 sequence (chain, as listed by the source limits assumed): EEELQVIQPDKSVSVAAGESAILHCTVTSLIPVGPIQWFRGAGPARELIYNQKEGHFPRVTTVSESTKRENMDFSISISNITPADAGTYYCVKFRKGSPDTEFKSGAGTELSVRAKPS
Would you please tag the item 1 when its koff is 0.0007 s⁻¹ or above, and -1 when it is below?

Does koff meet or surpass 0.0007 s⁻¹ for S26 (scFv, V domains shown, also called clone 26) VH: DVQLVESGGGVVRPGESLRLSCAASGFTFSTYAMSWVRQAPGKGLEWVSGISASGSGTYYGDSVKGRFTMSRDNSKNTLYLQMNSLTAEDTAVYYCARETWNHLFDYWGLGTLVTVSS VL: ALTQPASVSANLGGTVEITCSGGSSSYYGWYQQKSPGSAPVTVIYSDNQRPSDIPSRFSGSASDSTATLTITGVQVEDEAIYYCGGYDSSTYANTFGAGTTLTVL ? -1

Is reported koff greater than or equal to 0.0007 s⁻¹ here: S69 (scFv, V domains shown, also called clone 69) VH: DLQLVESGGGVVRPGESLRLSCAASGFTFSSYAMSWVRQAPGKGLEWLAGISAGGSDTYYIDSVKGRFTISRDNSKNSLYLQMNSLTAEDTAVYYCARETWNHLFDYWGLGTLVTVSS VL: ALTQPASVSANPGETVKIICSGGDYYSTYYGWYQQKSPGSAPVTVIHSDDKRPSDIPSRFSGSASGSAATLTITGVRVEDEAVYFCGAYDGRTYINTFGAGTTLTVL -1

Record S164 (scFv, V domains shown) VH: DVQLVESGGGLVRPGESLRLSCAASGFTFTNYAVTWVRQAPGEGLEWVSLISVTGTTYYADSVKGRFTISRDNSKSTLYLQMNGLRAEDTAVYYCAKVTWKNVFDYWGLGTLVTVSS VL: EIVLTQSPGTLSVSPGERATFSCRASQTVGSKLAWYQQKPGQAPRLLIYDANTRATGIPARFSGSRSGTEFTLTISSLQSEDFAVYYCQQHTDWPPYTFGGGTKVEIK ; criterion: koff no lower than 0.0007 s⁻¹. Met? 1

Is it the case that S3 (scFv, V domains shown, also called clone 3; scFv-Fc form of AB3) VH: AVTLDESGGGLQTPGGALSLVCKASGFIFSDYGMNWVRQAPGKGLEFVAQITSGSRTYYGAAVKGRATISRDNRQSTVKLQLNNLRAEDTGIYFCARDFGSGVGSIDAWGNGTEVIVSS VL: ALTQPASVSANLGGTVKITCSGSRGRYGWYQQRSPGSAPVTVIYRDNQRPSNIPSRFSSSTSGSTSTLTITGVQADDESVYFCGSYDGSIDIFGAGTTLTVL has koff reaching or exceeding 0.0007 s⁻¹? -1

FYI, the data here is from patent US20210363269A1.
